Value source: ChEMBL document CHEMBL5058577

# Lookup of reported Population Healthy Nuclei (%) keyed by entry
Tested on: Fibroblast
Assay: Multiplex assay against human fibroblast
Assay type: toxicity, cell-based
Conditions: 24 h, 1 µM, compound concentration 1 uM, replicate 2
Could you give me the number in %? Just the number is fine.

A selection of reference data follows.
| Compound | Unit descriptor | Population Healthy Nuclei (%) |
| --- | --- | --- |
| C[C@@H]1CC(=O)Nc2cccc(-c3ccc4c(c3)c(-c3cnn(C)c3)nn4C)c2N1 | % | 50 |
| Cc1cc(NC(=O)NCCN2CCC(O)(Cc3ccccc3)CC2)c2ccccc2n1 [PALOSURAN] | % | 50 |

Would you mind telling me what Population Healthy Nuclei (%) value was observed for COCCn1c(C)c(C)s/c1=N\C(=O)C1C(C)(C)C1(C)C ?
54

###

# Lookup of reported Population Fragmented Nuclei (%) keyed by entry
Tested on: Fibroblast
Experiment: Multiplex assay against human fibroblast
Assay type: toxicity, cell-based
Details: 12 h, 10 µM, compound concentration 10 uM, replicate 1
Could you give me the number in %? Just the number is fine.

| Smiles data | Tgt | Population Fragmented Nuclei (%) |
| --- | --- | --- |
| CCCCCCNC(=O)Nc1ccc(S(=O)(=O)Nc2ccc(CCNC[C@H](O)COc3ccc(O)cc3)cc2)cc1 | Fibroblast | 17 |
| COc1cc(Nc2ncc3c(n2)-c2ccc(Cl)cc2C(c2c(F)cccc2OC)=NC3)ccc1C(=O)O | Fibroblast | 28 |
| CCc1nn2c(C)cc(C)nc2c1Cc1ccc(-c2nnc(C3CCNCC3)o2)cc1 | Fibroblast | 19 |
| CC(C)(C)c1ccc(CSc2cnn(C(C)(C)C)c(=O)c2Cl)cc1 | Fibroblast | 11 |
| O=C(Nc1cc(-c2ccccc2)nn1-c1ccccc1F)c1ccc([N+](=O)[O-])cc1 | Fibroblast | 10 |
| OCCCNc1cc(-c2ccnc(Nc3cccc(Cl)c3)n2)ccn1 | Fibroblast | 38 |

Would you mind telling me what Population Fragmented Nuclei (%) value was observed for N[C@](CC1c2ccccc2Oc2ccccc21)(C(=O)O)[C@H]1C[C@@H]1C(=O)O ?
13

Would you mind telling me what Population Fragmented Nuclei (%) value was observed for O=c1ccc2ccc(OCCCCN3CCN(c4cccc5sccc45)CC3)cc2[nH]1 ?
16

###

# Lookup of reported Population Mitochondria Different-Phenotype (%) keyed by entry
Test system: HEK-293T
Experiment: Multiplex assay against HEK293T
Assay type: toxicity, cell-based
Conditions: human, 12 h, 1 µM, compound concentration 1 uM, replicate 1
Could you give me the number in %? Just the number is fine.

| Smiles data | Unit descriptor | Recorded value |
| --- | --- | --- |
| CN(C)C(=O)Cn1cc(-c2ccc(-c3nnc4ccccn34)cc2)cn1 | % | 40 |
| CN1CCN(c2ccc(Nc3c4ccccc4nc4ccccc34)cc2)CC1.Cl.Cl.O | % | 50 |

Lab note: next molecule to report on.
Tell me reported Population Mitochondria Different-Phenotype (%) for CCCCCCNC(=O)Nc1ccc(S(=O)(=O)Nc2ccc(CCNC[C@H](O)COc3ccc(O)cc3)cc2)cc1 , tested with HEK-293T.
39

###

Tested on: Fibroblast
Assay: Multiplex assay against human fibroblast
Assay type: toxicity, cell-based
Conditions: 48 h, 1 µM, compound concentration 1 uM, replicate 2
# Lookup of reported Total Cell Count keyed by entry
A bare number is all that is needed in reply.

| Compound | Readout label | Recorded value |
| --- | --- | --- |
| C=CCN1C[C@H](C(=O)N(CCCN(C)C)C(=O)NCC)C[C@@H]2c3cccc4[nH]cc(c34)C[C@H]21 | Total Cell Count | 156 |
| N[C@](CC1c2ccccc2Oc2ccccc21)(C(=O)O)[C@H]1C[C@@H]1C(=O)O | Total Cell Count | 125 |

Would you mind telling me what Total Cell Count value was observed for Cc1c(Cc2ccc3ccccc3n2)c2cc(F)ccc2n1CC(=O)O ?
150

Would you mind telling me what Total Cell Count value was observed for Cc1ccc(OCC(O)C(C)NC(C)C)c2c1CCC2.Cl (stereo unspecified) ?
196

Would you mind telling me what Total Cell Count value was observed for O=C(O)CCC/C=C\CC1C(O)CC(O)C1/C=C/C(O)COc1cccc(Cl)c1 (stereo unspecified) ?
137

Would you mind telling me what Total Cell Count value was observed for CCC(=O)OCC(=O)[C@@]1(OC(=O)CC)[C@@H](C)C[C@H]2[C@@H]3CCC4=CC(=O)C=C[C@]4(C)[C@@]3(Cl)[C@@H](O)C[C@@]21C [BECLOMETHASONE DIPROPIONATE] ?
143
